Would you mind telling me the reported pEC50 of each entry?
- System: human coronavirus (HCoV) 229E
- method: microbe, parasite or virus in culture
- Assay type: cell-based, human coronavirus 229E
- test context: MRCS cells, HCoV 229E, 3 days, CellTiter Glo; read-out: 229E CPE EC50
Give bare numbers, as −log10 of the molar value.

CC(C#N)C(=O)N[C@H](C(=O)N1C[C@H]2[C@@H]([C@H]1C(=O)N[C@H](C#N)C[C@@H]1CCNC1=O)C2(C)C)C(C)(C)C (stereo partly drawn): 5.34

For every listed record, write down its pEC50.
1. CC(C)(C)[C@H](NS(=O)(=O)c1cccnc1)C(=O)N1C[C@H]2[C@@H]([C@H]1C(=O)N[C@H](C#N)C[C@@H]1CCNC1=O)C2(C)C
2. CC(C)(C)[C@H](NS(=O)(=O)c1ccc2c(c1)CCO2)C(=O)N1C[C@H]2[C@@H]([C@H]1C(=O)N[C@H](C#N)C[C@@H]1CCNC1=O)C2(C)C

1. 5.36
2. 5.97
